# credit: the supplement of paper PMC4466140

Listed below: SPOT peptide array binding signal intensity values for each entry.
Molecular target: AgBem1-D1
Assay: SPOT peptide array binding signal intensity (averaged, normalized) (arbitrary units (background-subtracted, floor 0; scale differs between SH3 domains)); higher = stronger binding of the SH3 domain to the peptide
Experimental Endpoint: SPOT peptide array binding signal intensity

INSERT INTO measurements (binder, op, reported_result) VALUES
  ('VYTRTAFQIPGDDKI', '≤', 0),
  ('ISPPASPPPEFDFSK', '≤', 0),
  ('TEVPIPRRPPPPQAA', '≤', 0),
  ('QNTPPLPPKPKSPHL', '≤', 0),
  ('TPTSGPPLLPPRNTM', '≤', 0),
  ('NILKRRPLKLEAPSK', '=', 65),
  ('RFKRHRLEFPFNESE', '=', 120),
  ('KWVRRPKLMTPLTFS', '=', 169),
  ('QRIRKIPGIPLMSVG', '=', 63.5),
  ('QLLNPNRRAPRRPLS', '=', 328),
  ('MAMRPIPPLPTESEY', '=', 155),
  ('EVTPKVPERPSRRKT', '=', 13),
  ('RKRRTHLRLPLIRSN', '=', 130),
  ('DTIDNVKSKIQDKEG', '≤', 0),
  ('QRKSLRRPTLSKPAV', '=', 210),
  ('AAHKTKPSIPPKKVE', '≤', 0),
  ('FTLPPPPPPPGLDEL', '≤', 0),
  ('QHQQRQPKRPKRYSL', '=', 112),
  ('PALPSLPPPPLLNVD', '≤', 0),
  ('DKSRPPRPPPKPLHL', '≤', 0);
